The reported numbers originate from patent US6093744A.

# Tested on: acyl-CoA: cholesterol acyltransferase (ACAT) (Rattus norvegicus, UniProt Q7TQM4)
# Construct: tissue preparation containing rat liver microsomes; from tissue; host or cells: rat liver microsomes
# Sequence (Q7TQM4 whole entry): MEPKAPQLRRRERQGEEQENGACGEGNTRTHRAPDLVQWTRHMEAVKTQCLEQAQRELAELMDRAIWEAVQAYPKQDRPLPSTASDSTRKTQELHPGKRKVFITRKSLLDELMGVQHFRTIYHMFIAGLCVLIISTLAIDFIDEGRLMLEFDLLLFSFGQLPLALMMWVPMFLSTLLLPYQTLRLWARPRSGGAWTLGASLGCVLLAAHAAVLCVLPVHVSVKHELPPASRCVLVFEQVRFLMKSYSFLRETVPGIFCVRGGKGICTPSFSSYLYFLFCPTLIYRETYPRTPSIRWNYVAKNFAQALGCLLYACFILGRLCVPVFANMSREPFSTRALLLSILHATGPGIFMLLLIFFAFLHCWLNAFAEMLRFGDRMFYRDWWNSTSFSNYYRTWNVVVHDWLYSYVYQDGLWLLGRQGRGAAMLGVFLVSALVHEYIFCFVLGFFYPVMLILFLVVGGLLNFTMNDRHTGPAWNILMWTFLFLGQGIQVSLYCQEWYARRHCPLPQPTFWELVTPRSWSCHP
# Protocol notes: In vitro inhibition of acylation of cholesterol by oleic acid (LAI), rat liver microsomes
# Format: biochemical
# Test parameters: radiolabeled oleic acid
Structures can show the parent of a compound that is named as a salt.
Measured endpoint: IC50 (µM)

I = CC(C)c1cc(C(C)C)c(CC(=O)NS(=O)(=O)Oc2c(C(C)C)cc(NC(=O)[C@H](CCCCNC(=O)OC(C)(C)C)NC(=O)OC(C)(C)C)cc2C(C)C)c(C(C)C)c1
II = CC(C)c1cc(C(C)C)c(CC(=O)NS(=O)(=O)Oc2c(C(C)C)cc(C(N)=O)cc2C(C)C)c(C(C)C)c1
Which is greater in IC50, the first item I or the second item II ? Kindly give the label for the entry you pick. II
(II: 43.8 µM, I: 23 µM)

1 = CC(C)c1cc(C(C)C)c(CC(=O)NS(=O)(=O)Oc2c(C(C)C)cc(NS(=O)(=O)c3cccc4c(N(C)C)cccc34)cc2C(C)C)c(C(C)C)c1
2 = CC(=O)Nc1cc(C(C)C)c(OS(=O)(=O)NC(=O)Cc2c(C(C)C)cc(C(C)C)cc2C(C)C)c(C(C)C)c1
3 = CSCCC(N)C(=O)Nc1cc(C(C)C)c(OS(=O)(=O)NC(=O)Cc2c(C(C)C)cc(C(C)C)cc2C(C)C)c(C(C)C)c1 (centres unmarked) [Example 6, trifluoroacetate]
Please rank these compounds by IC50 in descending order. Present the labels in the sequence the task asks for. 3, 2, 1

A = CC(C)c1cc(C(C)C)c(CC(=O)NS(=O)(=O)Oc2c(C(C)C)cc(S(N)(=O)=O)cc2C(C)C)c(C(C)C)c1
B = CC(C)c1cc(C(C)C)c(CC(=O)NS(=O)(=O)Oc2c(C(C)C)cc(NC(=O)CNC(=O)OC(C)(C)C)cc2C(C)C)c(C(C)C)c1
Just curious, which one has the larger IC50 reading, A or B ? Label of pick, please. A
(A: 50 µM, B: 18 µM)
